compounds and their reported Percent Effect
Study target: Tyrosyl-tRNA synthetase, putative (Trypanosoma cruzi (strain CL Brener)) (UniProt Q4DSP6)
Sequence (Q4DSP6 as listed by the source): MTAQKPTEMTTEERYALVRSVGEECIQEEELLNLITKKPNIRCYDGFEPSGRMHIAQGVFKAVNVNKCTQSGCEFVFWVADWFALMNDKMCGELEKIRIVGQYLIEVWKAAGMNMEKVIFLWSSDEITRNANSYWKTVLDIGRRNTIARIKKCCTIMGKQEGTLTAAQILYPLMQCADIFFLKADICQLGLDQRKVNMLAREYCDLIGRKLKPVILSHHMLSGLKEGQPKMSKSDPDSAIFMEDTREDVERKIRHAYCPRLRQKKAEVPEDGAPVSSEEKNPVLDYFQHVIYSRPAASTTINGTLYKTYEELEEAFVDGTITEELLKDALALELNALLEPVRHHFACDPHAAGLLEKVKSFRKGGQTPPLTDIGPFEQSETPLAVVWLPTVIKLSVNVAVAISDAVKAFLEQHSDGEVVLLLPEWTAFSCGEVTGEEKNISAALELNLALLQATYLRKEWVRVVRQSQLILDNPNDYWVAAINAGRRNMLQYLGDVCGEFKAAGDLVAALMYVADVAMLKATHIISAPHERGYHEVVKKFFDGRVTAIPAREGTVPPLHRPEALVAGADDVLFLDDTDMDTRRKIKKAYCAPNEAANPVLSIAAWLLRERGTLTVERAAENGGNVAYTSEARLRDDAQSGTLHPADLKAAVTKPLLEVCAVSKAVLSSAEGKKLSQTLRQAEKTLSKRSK
Protocol summary: Trypanosoma cruzi tyrosyl tRNA synthetase (TcYRS) _High Tyrosine SOP; further: in the data most compounds retested in dose-response had high values
Type: functional
Set-up: scale not given: direction of the effect not stated beside the values
Condition description: 30 µM
State just the number; it will be interpreted in %.

Previously resolved entries follow.
Ask | Value lookup for Percent Effect; key = CNC(=O)c1ccc2c(c1)C1(CCN(CC(C)C)CC1)C(=O)N2
Reply | 4.3

Ask | Can you check Cc1nc(NCC2CC2)nc2c1COCC21CCN(C)C1 (stereo unspecified) next?
Reply | 4.25

Ask | Can you check NCC1(c2cccc(Br)c2)CCOCC1 next?
Reply | 8.91

Ask | Can you check Cc1nc(CN2CCOCC3(CCN(c4ncccn4)C3)C2)cs1 (stereo unspecified) next?
Reply | 13.9

Ask | Can you check CN1CCC2(COCc3cnc(N4CCOCC4)nc32)C1 (stereo unspecified) next?
Reply | 0

Next:
Ask | Value lookup for Percent Effect; key = O=C(c1ccnnc1)N1C[C@@H]2OCCN(CCN3CCCC3)[C@@H]2C1
Reply | 6.49

---

compounds and their reported Percent Effect
Study target: Aspartate--tRNA(Asp/Asn) ligase (Mycobacterium tuberculosis (strain ATCC 25618 / H37Rv)); further: in the data most compounds retested in dose-response had high values
Protocol summary: Assay for Asp RNA synthetase-1 from Mycobacterium tuberculosis
Type: functional
Parameters: scale not given: direction of the effect not stated beside the values
Condition description: 30 µM
State just the number; it will be interpreted in %.

Ask | Value lookup for Percent Effect; key = O=C(Cn1cc(C(=O)O)ccc1=O)Nc1ccc(Cl)cc1F
Reply | -4.96

Ask | Can you check O=C1CCCCN1Cc1cccc(NC(=O)N2CCSCC2)c1 next?
Reply | -4.71

Ask | Can you check CC1=Nc2c(c(=O)[nH]n2C2CCCC2)C(c2cccc(O)c2)S1 (configuration not stated) next?
Reply | 0.174

Ask | Can you check c1nc(N2CCCCC2Cn2cncn2)c2ccsc2n1 (configuration not stated) next?
Reply | -0.379

Ask | Can you check Cc1nccn1C1CCCN(C(=O)COCC(F)(F)F)C1 (configuration not stated) next?
Reply | -1.01

Ask | Can you check CC(C)c1noc(CCCC(=O)NC2CCS(=O)(=O)C2)n1 (configuration not stated) next?
Reply | 0.955

Ask | Can you check Cc1cccc(-c2noc(CN3CCCC3Cn3cccn3)n2)c1 (configuration not stated) next?
Reply | -8.22

---

molecules and their reported Percent Effect
Study target: Shiga toxin 2 (Escherichia coli O157:H7) (UniProt P09385+P09386)
Protocol summary: E. coli 0.157:H7 Shiga Toxin SOP - stx2 screening assay
Type: functional
Parameters: scale not given: direction of the effect not stated beside the values
Condition description: 30 µM
State just the number; it will be interpreted in %.

Ask | Value lookup for Percent Effect; key = Cc1cnn(CC2CCCN2Cc2nnsc2Cl)c1 (stereo not drawn)
Reply | 9.02

Ask | Can you check CC1(C)CN(C(=O)NCCc2ccn(-c3ccccc3)n2)CCO1 next?
Reply | 16.6

Ask | Can you check O=C(NCCCN1CCOCC1)c1ccn(-c2ccc3ccccn23)n1 next?
Reply | -18.9

Ask | Can you check CCn1c(C(=O)N2CCN(C(=O)COC)CC2)cc2ccccc21 next?
Reply | -41.5

Ask | Can you check O=C(O)c1cc2c(nc1O)CC(c1cccc(Cl)c1)CC2=O (stereo not drawn) next?
Reply | -22.1

Next:
Ask | Value lookup for Percent Effect; key = CC(C)CN1C[C@@H]2CN(C(=O)[C@H]3CCCO3)C[C@@H]2C1=O
Reply | -18.1

Ask | Can you check O=C(c1cccc(F)c1)N1CCN2C[C@H](OCc3cccnc3)C[C@H]2C1 next?
Reply | -4.11

Ask | Can you check CCc1csc(C2CCCN(C(=O)c3c[nH]c(C)n3)C2)n1 (stereo not drawn) next?
Reply | -10.2

Ask | Can you check COCC(=O)N1CCC(c2nc3ccc(N4CCCC4)cn3n2)CC1 next?
Reply | -26.9

Ask | Can you check CCn1c(C)nnc1CN(C)C1CCN(Cc2nccn2C)C1 (stereo not drawn) next?
Reply | -37.8

Ask | Can you check COCCn1ccc(=O)c(OCC(=O)Nc2ccccc2)c1C next?
Reply | -38

Ask | Can you check CN1CCCc2cc(CNC(=O)c3ccncc3)ccc21 next?
Reply | -75.2

Ask | Can you check c1ccc(Cn2cc(CNCC3CCCN3c3cccnn3)cn2)cc1 (stereo not drawn) next?
Reply | 22.8

Ask | Can you check CCc1nc(C)c([C@H]2CN(C)C[C@@H]2C(=O)Nc2ccc(OC)cc2)[nH]1 next?
Reply | 9.62

Ask | Can you check Cc1cccc(CN2C(=O)CO[C@@H]3CN(Cc4nccn4C)C[C@H]32)c1 next?
Reply | -7.92

Ask | Can you check CCc1c(C(=O)NC2CCS(=O)(=O)C2)cnn1-c1ccc(F)cc1 (stereo not drawn) next?
Reply | 9.21

Ask | Can you check Cn1cnnc1C1CCCN(C(=O)c2cc(Cl)c3c(c2)OCO3)C1 (stereo not drawn) next?
Reply | -2.91

Ask | Can you check Cc1nc(NCC2CC2)nc2c1COCC21CCN(C)C1 (stereo not drawn) next?
Reply | 2.88

Ask | Can you check Cc1cccc(C(=O)NCc2ccnc(N(C)C)c2)n1 next?
Reply | -8.62

Ask | Can you check O=C1[C@H]2CC[C@H](CN(S(=O)(=O)c3ccccc3)C2)N1Cc1cscn1 next?
Reply | -25.8

Ask | Can you check COCCC(=O)N1C[C@H]2CN(Cc3cccc(C)n3)C(=O)[C@H]2C1 next?
Reply | -18.7

Ask | Can you check COc1ccccc1CC(=O)NCCCN1CCCC1C(=O)N(C)C (stereo not drawn) next?
Reply | -5.75

Ask | Can you check CC(=O)N1CCN(C(=O)CN2CCc3c(ncn3C3CC3)C2)CC1 next?
Reply | -27.5
